# Test system: BALB/c mice (AA-induced ear swelling)
# ASSAY_PROCEDURE: Murine ear inflammation assay, AA-induced ear swelling
# Format: in vivo, mouse
# MEASUREMENT_CONTEXT: AA; 25 mg/kg i/p; 1 hr post-AA
ENDPOINT: Change in ear thickness (mean ± SD, ×0.01 mm)
Write it as a number; the unit ×0.01 mm goes unstated.

Solved entries:
Cc1c(O)ccc2c1OCC(c1cccc(O)c1)=C2 [Cpd. 14, 3′,7-Dihydroxy-8-methylisoflav-3-ene] = 10.7
Oc1ccc2c(c1)OCC(c1ccc(Br)cc1)=C2 [Cpd. 21, 4′-Bromo-7-hydroxyisoflav-3-ene] = 14.4

Query block: Annotate the molecule `COc1ccc(C2=Cc3ccc(O)c(C)c3OC2)cc1OC` with its measured Change in ear thickness (mean ± SD, ×0.01 mm).
Result block: 9.3

Query block: Annotate the molecule Oc1ccc(C2=Cc3ccc(O)c(Br)c3OC2)cc1 [Cpd. 20, 4′,7-Dihydroxy-8-bromoisoflav-3-ene] with its measured Change in ear thickness (mean ± SD, ×0.01 mm).
Result block: 14.4

Query block: Annotate the molecule COc1cccc(C2=Cc3ccc(O)cc3OC2)c1 [Cpd. 16, 7-Hydroxy-3′-methoxyisoflav-3-ene] with its measured Change in ear thickness (mean ± SD, ×0.01 mm).
Result block: 11.6

Query block: Annotate the molecule COc1ccc(C2=Cc3ccc(O)cc3OC2)cc1OC [Cpd. 18, 7-Hydroxy-3′,4′-dimethoxyisoflav-3-ene] with its measured Change in ear thickness (mean ± SD, ×0.01 mm).
Result block: 8.4

---

In this section we review reported IC50 values for a set of compounds.
# Test system: HCASMC
# ASSAY_PROCEDURE: Proliferation of human coronary artery smooth muscle cells
# Format: cell-based
# MEASUREMENT_CONTEXT: VSMC, 120 h, five days, MTT
Write it as a number; the unit µM goes unstated.

Solved entries:
COc1ccc(C2=Cc3ccc(O)cc3OC2)cc1OC [Cpd. 18, 7-Hydroxy-3′,4′-dimethoxyisoflav-3-ene] = 88
Oc1ccc(C2=Cc3ccc(O)c(Br)c3OC2)cc1 [Cpd. 20, 4′,7-Dihydroxy-8-bromoisoflav-3-ene] = 27
Cc1c(O)ccc2c1OCC(c1cccc(O)c1)=C2 [Cpd. 14, 3′,7-Dihydroxy-8-methylisoflav-3-ene] = 54
Oc1ccc2c(c1)OCC(c1ccc(Br)cc1)=C2 [Cpd. 21, 4′-Bromo-7-hydroxyisoflav-3-ene] = 29
COc1ccc(C2=Cc3ccc(O)c(C)c3OC2)cc1OC = 63

Shift focus to the following entry.
Query block: Annotate the compound COc1cccc(C2=Cc3ccc(O)cc3OC2)c1 [Cpd. 16, 7-Hydroxy-3′-methoxyisoflav-3-ene] with its measured IC50.
Result block: 118

---

# Test system: TNFα
# ASSAY_PROCEDURE: LPS-induced TNFα synthesis in RAW 264.7 murine macrophages
# Type: cell-based, mouse
# MEASUREMENT_CONTEXT: 10 μM; RAW 264.7, LPS
ENDPOINT: synthesis of TNFα

COc1cccc(C2=Cc3ccc(O)cc3OC2)c1 [Cpd. 16, 7-Hydroxy-3′-methoxyisoflav-3-ene] = tended to do so
Oc1ccc2c(c1)OCC(c1ccc(Br)cc1)=C2 [Cpd. 21, 4′-Bromo-7-hydroxyisoflav-3-ene] = inhibited
Cc1c(O)ccc2c1OCC(c1cccc(O)c1)=C2 [Cpd. 14, 3′,7-Dihydroxy-8-methylisoflav-3-ene] = tended to do so
COc1ccc(C2=Cc3ccc(O)c(C)c3OC2)cc1OC = inhibited
COc1ccc(C2=Cc3ccc(O)cc3OC2)cc1OC [Cpd. 18, 7-Hydroxy-3′,4′-dimethoxyisoflav-3-ene] = inhibited

Shift focus to the following entry.
Query block: Annotate the compound Oc1ccc(C2=Cc3ccc(O)c(Br)c3OC2)cc1 [Cpd. 20, 4′,7-Dihydroxy-8-bromoisoflav-3-ene] with its measured synthesis of TNFα.
Result block: tended to do so

These measurements were taken from patent US20090233999A1.
